method_notes: Stability in 80% human plasma assessed as half life by HPLC
Assay type: ADME, cell-free
quantity: log10(half-life) (log10 of the value in h)
Form field - Quantity: half-life; Unit: h; Scale: log10

As a guide, the following entries are already answered.
[
  {
    "smiles_input": "C[C@H](NC(=O)c1ccccc1)C(=O)N(C)/N=N/c1ccc(C#N)cc1",
    "numeric_readout": 0.20
  },
  {
    "smiles_input": "CC(=O)N[C@@H](C)C(=O)N(C)/N=N/c1ccc(C#N)cc1",
    "numeric_readout": 0.00
  },
  {
    "smiles_input": "CC(=O)N[C@@H](Cc1ccccc1)C(=O)N(C)/N=N/c1ccc(C#N)cc1",
    "numeric_readout": 0.38
  },
  {
    "smiles_input": "CC(=O)N[C@H](C(=O)N(C)/N=N/c1ccc(C#N)cc1)C(C)C",
    "numeric_readout": 0.76
  },
  {
    "smiles_input": "CCC(=O)N[C@@H](C)C(=O)N(C)/N=N/c1ccc(C#N)cc1",
    "numeric_readout": 0.11
  }
]

Challenge: Consider the compound `CC(=O)N[C@@H](C)C(=O)N(C)/N=N/c1ccc(C(C)=O)cc1` and give its measured log10(half-life).
Response given: 0.36

Challenge: What value of log10(half-life) has been recorded for this entry: `CC(=O)N[C@@H](C)C(=O)N(C)/N=N/c1ccc(Br)cc1`
Response given: 0.76

Challenge: So what's the measured log10(half-life) for this one? `CC(=O)NCC(=O)N(C)/N=N/c1ccc(C#N)cc1`
Response given: 0.08

Challenge: So what does the record say about log10(half-life) for `CCOC(=O)c1ccc(/N=N/N(C)C(=O)[C@H](C)NC(C)=O)cc1` ?
Response given: 0.66

Challenge: Query (compound): `CC(=O)N[C@@H](C)C(=O)N(C)/N=N/c1ccc(C)cc1` ; field requested: log10(half-life)
Response given: 1.18

Challenge: Value lookup for log10(half-life); key = `CCCC(=O)N[C@@H](C)C(=O)N(C)/N=N/c1ccc(C#N)cc1`
Response given: 0.04

Challenge: Looking for the measured log10(half-life) of `CC(=O)N[C@@H](C)C(=O)N(C)/N=N/c1ccc(C(N)=O)cc1` , can you help?
Response given: 0.88

----------
method_notes: Stability in phosphate buffer assessed as half life at pH 7.7 by HPLC
Type: physicochemical
Kindly return t if reported half-life is no lower than 20 h; return f if it is lower.

[
  {
    "smiles_input": "CCOC(=O)c1ccc(/N=N/N(C)C(=O)[C@H](C)NC(C)=O)cc1",
    "label_value": "f"
  },
  {
    "smiles_input": "CC(=O)NCC(=O)N(C)/N=N/c1ccc(C#N)cc1",
    "label_value": "f"
  },
  {
    "smiles_input": "CC(=O)N[C@@H](C)C(=O)N(C)/N=N/c1ccc(C#N)cc1",
    "label_value": "f"
  },
  {
    "smiles_input": "CCC(=O)N[C@@H](C)C(=O)N(C)/N=N/c1ccc(C#N)cc1",
    "label_value": "f"
  },
  {
    "smiles_input": "CCCC(=O)N[C@@H](C)C(=O)N(C)/N=N/c1ccc(C#N)cc1",
    "label_value": "f"
  }
]

Challenge: Quick check, half-life >= 20 h? `C[C@H](NC(=O)c1ccccc1)C(=O)N(C)/N=N/c1ccc(C#N)cc1`
Response given: f

----------
method_notes: Octanol-phosphate buffer partition coefficient at pH 7.4 by HPLC
Type: physicochemical
quantity: logD
When you answer, write just the number.

Recorded logD, per entry:
[
  {
    "smiles_input": "C[C@H](NC(=O)c1ccccc1)C(=O)N(C)/N=N/c1ccc(C#N)cc1",
    "logD": 3.04
  },
  {
    "smiles_input": "CC(=O)N[C@@H](C)C(=O)N(C)/N=N/c1ccc(C(C)=O)cc1",
    "logD": 1.51
  },
  {
    "smiles_input": "CC(=O)N[C@@H](C)C(=O)N(C)/N=N/c1ccc(C(N)=O)cc1",
    "logD": 0.69
  },
  {
    "smiles_input": "CC(=O)N[C@@H](C)C(=O)N(C)/N=N/c1ccc(Br)cc1",
    "logD": 2.8
  },
  {
    "smiles_input": "CCCC(=O)N[C@@H](C)C(=O)N(C)/N=N/c1ccc(C#N)cc1",
    "logD": 2.28
  }
]

Now for a further molecule.
Challenge: Item under review: `CCOC(=O)c1ccc(/N=N/N(C)C(=O)[C@H](C)NC(C)=O)cc1` . Reported logD?
Response given: 2.52

----------
method_notes: Stability in phosphate buffer assessed as half life at pH 7.7 by HPLC
Assay type: physicochemical
quantity: half-life (h)
Enter your answer as a number in h; do not include the unit.

Look over these answered cases.
[
  {
    "smiles_input": "CC(=O)N[C@@H](C)C(=O)N(C)/N=N/c1ccc(C(N)=O)cc1",
    "value_unit": "h",
    "half-life": 18.4
  },
  {
    "smiles_input": "CC(=O)N[C@@H](C)C(=O)N(C)/N=N/c1ccc(C)cc1",
    "value_unit": "h",
    "half-life": 46.5
  },
  {
    "smiles_input": "CC(=O)N[C@@H](Cc1ccccc1)C(=O)N(C)/N=N/c1ccc(C#N)cc1",
    "value_unit": "h",
    "half-life": 13.9
  }
]

Challenge: Dear colleague, I am looking for the recorded half-life of the following compound: `CC(=O)N[C@H](C(=O)N(C)/N=N/c1ccc(C#N)cc1)C(C)C`
Response given: 84.3

Challenge: Fill in the blank: the reported half-life of `CC(=O)N[C@@H](C)C(=O)N(C)/N=N/c1ccc(C(C)=O)cc1` is ____.
Response given: 13.9

Challenge: Look up half-life: `CC(=O)N[C@@H](C)C(=O)N(C)/N=N/c1ccc(Br)cc1`
Response given: 25.5

----------
method_notes: Octanol-phosphate buffer partition coefficient at pH 7.4 by HPLC
Type: physicochemical
Measured logD accompanies every entry in the list below.
Number only, please.

Examples with their reported logD follow.
[
  {
    "smiles_input": "CCC(=O)N[C@@H](C)C(=O)N(C)/N=N/c1ccc(C#N)cc1",
    "numeric_readout": 1.87
  },
  {
    "smiles_input": "CC(=O)N[C@@H](C)C(=O)N(C)/N=N/c1ccc(C)cc1",
    "numeric_readout": 2.45
  },
  {
    "smiles_input": "CC(=O)N[C@@H](Cc1ccccc1)C(=O)N(C)/N=N/c1ccc(C#N)cc1",
    "numeric_readout": 2.76
  },
  {
    "smiles_input": "CC(=O)NCC(=O)N(C)/N=N/c1ccc(C#N)cc1",
    "numeric_readout": 1.1
  },
  {
    "smiles_input": "CC(=O)N[C@H](C(=O)N(C)/N=N/c1ccc(C#N)cc1)C(C)C",
    "numeric_readout": 2.18
  }
]

Challenge: Could you share which logD value was measured for `CC(=O)N[C@@H](C)C(=O)N(C)/N=N/c1ccc(C#N)cc1` ?
Response given: 1.41
